These data points were gathered from the Immune Epitope Database (IEDB).

target: HLA-A*02:03; test: IEDB peptide-MHC binding, purified MHC/competitive/radioactivity; filed as Kd, often an IC50 or EC50 that approximates it; bounds were set here for any values at or beyond the usual limits of such assays; conditions: source organism: Mammarenavirus brazilense
result_type: Kd (nM)
Express your answer in nM, writing the number without its unit.

Consider HSLPRCWLV . Its measured Kd is 146

---

molecular target: HLA-A*24:03; test: IEDB peptide-MHC binding, purified MHC/direct/fluorescence; filed as Kd, often an IC50 or EC50 that approximates it; bounds were set here for any values at or beyond the usual limits of such assays; conditions: source organism: Vibrio vulnificus
Parameter: pKd. Scope: all listed entries.
Hey, just a heads up that pKd is the negative log base 10 of the concentration in molar.

sequence_code | experimental_system | pKd
GYQHKTLAI | HLA-A*24:03 | 8.19

Next sequence, pKd to be filled in.
Consider NGYRWQHQI . Its measured pKd is 5.12
